- measurement target: NSD2 [1-1365] (Homo sapiens (Human))
- Sequence (O96028 whole entry): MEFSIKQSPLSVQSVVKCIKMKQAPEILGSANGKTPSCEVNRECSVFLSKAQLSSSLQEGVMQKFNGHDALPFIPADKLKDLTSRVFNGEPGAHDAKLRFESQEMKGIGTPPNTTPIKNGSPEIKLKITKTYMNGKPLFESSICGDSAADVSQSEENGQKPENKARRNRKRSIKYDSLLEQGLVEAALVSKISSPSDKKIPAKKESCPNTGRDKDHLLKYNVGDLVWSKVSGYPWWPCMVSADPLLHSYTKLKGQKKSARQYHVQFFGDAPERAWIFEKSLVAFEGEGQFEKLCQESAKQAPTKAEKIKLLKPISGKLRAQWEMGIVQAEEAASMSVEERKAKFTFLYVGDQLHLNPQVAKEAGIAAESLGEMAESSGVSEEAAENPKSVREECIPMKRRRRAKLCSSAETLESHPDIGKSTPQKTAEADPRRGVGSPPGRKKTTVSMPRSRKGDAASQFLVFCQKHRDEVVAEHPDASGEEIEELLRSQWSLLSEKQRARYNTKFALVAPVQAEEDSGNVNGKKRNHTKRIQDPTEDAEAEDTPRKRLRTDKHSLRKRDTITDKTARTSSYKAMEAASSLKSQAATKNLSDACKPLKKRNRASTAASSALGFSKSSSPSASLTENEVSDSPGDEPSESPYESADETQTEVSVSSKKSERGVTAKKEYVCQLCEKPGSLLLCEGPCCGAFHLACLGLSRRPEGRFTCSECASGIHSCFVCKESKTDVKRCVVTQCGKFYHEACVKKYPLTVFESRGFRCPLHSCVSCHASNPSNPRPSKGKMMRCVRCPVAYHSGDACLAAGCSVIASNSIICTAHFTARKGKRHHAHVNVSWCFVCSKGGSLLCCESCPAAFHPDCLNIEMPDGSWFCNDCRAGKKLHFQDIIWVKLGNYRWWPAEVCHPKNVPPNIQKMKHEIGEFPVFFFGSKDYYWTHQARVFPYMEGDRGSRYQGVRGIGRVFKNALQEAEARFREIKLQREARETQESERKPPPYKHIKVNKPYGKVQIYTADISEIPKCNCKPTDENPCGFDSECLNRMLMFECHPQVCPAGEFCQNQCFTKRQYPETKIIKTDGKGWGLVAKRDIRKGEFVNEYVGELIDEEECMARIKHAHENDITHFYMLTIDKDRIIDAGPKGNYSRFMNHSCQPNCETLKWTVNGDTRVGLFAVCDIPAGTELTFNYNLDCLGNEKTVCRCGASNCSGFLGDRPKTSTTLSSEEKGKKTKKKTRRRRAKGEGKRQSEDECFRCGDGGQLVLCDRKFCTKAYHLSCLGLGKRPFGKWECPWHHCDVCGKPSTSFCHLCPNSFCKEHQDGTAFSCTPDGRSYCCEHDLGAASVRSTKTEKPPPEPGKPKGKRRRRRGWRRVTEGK
- assay notes: LC-MS/MS-based NSD2 enzymatic assay (SAH production)
- Assay type: biochemical
- condition details: NSD2 biochemical activity, class symbols; read-out: NSD2 IC50
readout: IC50

INSERT INTO results (compound, readout, result) VALUES
  ('COc1ccc(-c2cc(Cn3cnc4c(N)ncnc43)c(N3CCC[C@](N)([C@H](O)C(F)F)C3)cn2)cc1F [Example 127]', 'IC50', '1 to 10 nM'),
  ('Cc1cc(C(F)F)c(F)cc1-c1cc(Cn2cnc3c(N)ncnc32)c(N2CCC[C@](N)([C@@H](O)C(F)F)C2)cn1 [Example 129]', 'IC50', '1 to 10 nM'),
  ('Cc1cccc(C[C@@]2(N)CCCN(c3cnc(-c4ccc(F)c(F)c4)cc3Cn3cnc4c(N)ncnc43)C2)n1 [Example 55]', 'IC50', '1 to 10 nM');

Fill in the blank: the reported IC50 of Nc1ncnc2c1ncn2Cc1cc(-c2ccc(F)c(F)c2)ncc1N1CCC[C@](N)(CC(F)F)C1 [Example 47] is ____.
10 to 1000 nM

###

- System: cellular H3K36me2 level in multiple myeloma cell line KMS11 (t(4;14)+)
- assay notes: H3K36me2 cellular ELISA assay in KMS11-Par line
- Type: cell-based
- condition details: Homo sapiens, KMS-11; KMS11-Par line, ELISA, 72 hours; read-out: H3K36me2 ELISA in KMS11-Par
Reported IC50 maps to class as: low bin (below 1000 nM), mid bin (1000 nM to below 3000 nM), high bin (3000 nM or more)

Would you please look over these solved cases?
INSERT INTO measurements (compound, measurement_target, class) VALUES
  ('Cn1cc([C@@]2(N)CCCN(c3cnc(-c4ccc(F)c(F)c4)cc3Cn3cnc4c(N)ncnc43)C2)cn1', 'cellular H3K36me2 level in multiple myeloma cell line KMS11 (t(4;14)+)', 'high bin'),
  ('COc1ccc(-c2cc(Cn3cnc4c(N)ncnc43)c(N3CCC[C@](N)(c4ccc(F)c(C)n4)C3)cn2)cc1', 'cellular H3K36me2 level in multiple myeloma cell line KMS11 (t(4;14)+)', 'high bin'),
  ('Nc1ncnc2c1ncn2Cc1cc(-c2ccc(F)c(F)c2)ncc1N1CCC[C@](N)(c2cccc(C(F)F)n2)C1', 'cellular H3K36me2 level in multiple myeloma cell line KMS11 (t(4;14)+)', 'low bin'),
  ('Nc1ncnc2c1ncn2Cc1cc(-c2ccc(F)c(F)c2)ncc1N1CCC[C@](N)([C@@H](F)CO)C1', 'cellular H3K36me2 level in multiple myeloma cell line KMS11 (t(4;14)+)', 'low bin'),
  ('Nc1ncnc2c1ncn2Cc1cc(-c2ccc(F)c(F)c2)ncc1N1CCC[C@](N)(c2cccc(Cl)n2)C1', 'cellular H3K36me2 level in multiple myeloma cell line KMS11 (t(4;14)+)', 'low bin');

Given COc1cc(F)c(-c2cc(Cn3cnc4c(N)ncnc43)c(N3CCC[C@](N)(c4cccc(Cl)n4)C3)cn2)c(F)c1 , name the class its IC50 places it in.
high bin

Next record, please: Nc1ncnc2c1ncn2Cc1cc(-c2ccc(F)cc2)ncc1N1CCC[C@](N)(c2cccc(C(F)F)n2)C1
low bin

Next record, please: Nc1ncnc2c1ncn2Cc1cc(-c2ccc(F)c(F)c2F)ncc1N1CCC[C@](N)([C@@H](O)C(F)F)C1
high bin

Next record, please: Nc1ncnc2c1ncn2Cc1cc(-c2cc(F)c(F)cc2C(F)F)ncc1N1CCC[C@](N)([C@@H](O)C(F)F)C1
mid bin

Next record, please: Nc1ncnc2c1ncn2Cc1cc(-c2ccc(F)c(F)c2)ncc1N1CCC[C@](N)(c2ccncc2)C1
mid bin

Next record, please: Nc1ncnc2c1ncn2Cc1cc(-c2ccc(F)c(F)c2)ncc1N1CCCC(N)(c2ccn(C3CC3)n2)C1 (stereo not shown)
low bin

Measured values drawn from patent US11420970B1 for this set.
